# reported combination Emax; entries follow
Test system: OVCAR-3 (Ovarian Carcinoma)
protocol_notes: combination Emax (second highest fraction inhibited in the dose matrix, 72 h); higher = more inhibition; extreme values may be limits of the assay

{"columns": ["compound", "tested_target", "combination Emax"],
 "data": [
  ["CC(=O)c1c(C)c2cnc(Nc3ccc(N4CCNCC4)cn3)nc2n(C2CCCC2)c1=O [Palbociclib] + Cc1c2c(nn1C)CSCc1cc(n(C)n1)CSc1cc(c3ccccc3c1)OCCCc1c(C(=O)O)n(C)c3c-2c(Cl)ccc13 [AZD5991] (first compound max 10 µM, 7x7, partner max 1 µM)", "OVCAR-3 (Ovarian Carcinoma)", 0.167],
  ["CCN(CCO)CCCOc1ccc2c(Nc3cc(CC(=O)Nc4cccc(F)c4)[nH]n3)ncnc2c1 [AZD2811] + O=C(c1cc(Cc2n[nH]c(=O)c3ccccc23)ccc1F)N1CCN(C(=O)C2CC2)CC1 [Olaparib] (first compound max 1 µM, 7x7, partner max 10 µM)", "OVCAR-3 (Ovarian Carcinoma)", 0.147],
  ["C=CCn1c(=O)c2cnc(Nc3ccc(N4CCN(C)CC4)cc3)nc2n1-c1cccc(C(C)(C)O)n1 [AZD1775] + C[C@@H]1COCCN1C2=NC(=NC(=C2)C3(CC3)[S@](=N)(=O)C)C4=C5C=CNC5=NC=C4 [AZD6738] (first compound max 1 µM, partner max 10 µM)", "OVCAR-3 (Ovarian Carcinoma)", 0.74],
  ["NC1(C(=O)N[C@@H](CCO)c2ccc(Cl)cc2)CCN(c2ncnc3[nH]ccc23)CC1 [Capivasertib] + CC(=O)c1c(C)c2cnc(Nc3ccc(N4CCNCC4)cn3)nc2n(C2CCCC2)c1=O [Palbociclib] (first compound max 10 µM, 7x7, partner max 10 µM)", "OVCAR-3 (Ovarian Carcinoma)", 0.379],
  ["COc1cccc(OCCCN)c1-c1cc(Nc2cnc(C#N)cn2)n[nH]1 [Prexasertib] + CN(C)CCCOc1ccc(-c2ccc3ncc4c(c3c2)n(C2CCOCC2)c(=O)n4C)cn1 [AZD0156] (first compound max 1 µM, 7x7, partner max 1 µM)", "OVCAR-3 (Ovarian Carcinoma)", 0.758],
  ["CC1(C)CCC(CN2CCN(c3ccc(C(=O)NS(=O)(=O)c4ccc(NCC5CCOCC5)c([N+](=O)[O-])c4)c(Oc4cnc5[nH]ccc5c4)c3)CC2)=C(c2ccc(Cl)cc2)C1 [Venetoclax] + CCN(CCO)CCCOc1ccc2c(Nc3cc(CC(=O)Nc4cccc(F)c4)[nH]n3)ncnc2c1 [AZD2811] (first compound max 1 µM, 7x7, partner max 1 µM)", "OVCAR-3 (Ovarian Carcinoma)", 0.194],
  ["COc1nnc2ccc(N3CCC(c4ccc(OCCN5CCN(C)C(=O)[C@H]5C)cc4)CC3)nn12 [AZD5153] + C[C@@H]1COCCN1C2=NC(=NC(=C2)C3(CC3)[S@](=N)(=O)C)C4=C5C=CNC5=NC=C4 [AZD6738] (first compound max 1 µM, 7x7, partner max 10 µM)", "OVCAR-3 (Ovarian Carcinoma)", 0.821]
]}

* * *

System: BxPC-3 (Pancreatic Carcinoma);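 note: after 72 h of two-drug dosing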
protocol_notes: Bliss excess, mean over the matrix (fraction); higher = more synergy

{"columns": ["molecule", "tested_target", "Bliss excess"],
 "data": [
  ["COc1cccc(OCCCN)c1-c1cc(Nc2cnc(C#N)cn2)n[nH]1 [Prexasertib] + C=CCn1c(=O)c2cnc(Nc3ccc(N4CCN(C)CC4)cc3)nc2n1-c1cccc(C(C)(C)O)n1 [AZD1775] (first compound max 1 µM, partner max 1 µM)", "BxPC-3 (Pancreatic Carcinoma)", -0.0074],
  ["NC1(C(=O)N[C@@H](CCO)c2ccc(Cl)cc2)CCN(c2ncnc3[nH]ccc23)CC1 [Capivasertib] + CCN(CCO)CCCOc1ccc2c(Nc3cc(CC(=O)Nc4cccc(F)c4)[nH]n3)ncnc2c1 [AZD2811] (first compound max 10 µM, 7x7, partner max 1 µM)", "BxPC-3 (Pancreatic Carcinoma)", -0.0545],
  ["CC1(C)CCC(CN2CCN(c3ccc(C(=O)NS(=O)(=O)c4ccc(NCC5CCOCC5)c([N+](=O)[O-])c4)c(Oc4cnc5[nH]ccc5c4)c3)CC2)=C(c2ccc(Cl)cc2)C1 [Venetoclax] + COc1cc(Nc2ncc3c(n2)-c2ccc(Cl)cc2C(c2c(F)cccc2OC)=NC3)ccc1C(=O)O [Alisertib] (first compound max 1 µM, 7x7, partner max 10 µM)", "BxPC-3 (Pancreatic Carcinoma)", -0.0291]
]}
